SYSTEM UNDER TEST: EGFR T790M/L858R (Homo sapiens, UniProt P00533, L858R/T790M)
Sequence (P00533 25-1210 T790M/L858R): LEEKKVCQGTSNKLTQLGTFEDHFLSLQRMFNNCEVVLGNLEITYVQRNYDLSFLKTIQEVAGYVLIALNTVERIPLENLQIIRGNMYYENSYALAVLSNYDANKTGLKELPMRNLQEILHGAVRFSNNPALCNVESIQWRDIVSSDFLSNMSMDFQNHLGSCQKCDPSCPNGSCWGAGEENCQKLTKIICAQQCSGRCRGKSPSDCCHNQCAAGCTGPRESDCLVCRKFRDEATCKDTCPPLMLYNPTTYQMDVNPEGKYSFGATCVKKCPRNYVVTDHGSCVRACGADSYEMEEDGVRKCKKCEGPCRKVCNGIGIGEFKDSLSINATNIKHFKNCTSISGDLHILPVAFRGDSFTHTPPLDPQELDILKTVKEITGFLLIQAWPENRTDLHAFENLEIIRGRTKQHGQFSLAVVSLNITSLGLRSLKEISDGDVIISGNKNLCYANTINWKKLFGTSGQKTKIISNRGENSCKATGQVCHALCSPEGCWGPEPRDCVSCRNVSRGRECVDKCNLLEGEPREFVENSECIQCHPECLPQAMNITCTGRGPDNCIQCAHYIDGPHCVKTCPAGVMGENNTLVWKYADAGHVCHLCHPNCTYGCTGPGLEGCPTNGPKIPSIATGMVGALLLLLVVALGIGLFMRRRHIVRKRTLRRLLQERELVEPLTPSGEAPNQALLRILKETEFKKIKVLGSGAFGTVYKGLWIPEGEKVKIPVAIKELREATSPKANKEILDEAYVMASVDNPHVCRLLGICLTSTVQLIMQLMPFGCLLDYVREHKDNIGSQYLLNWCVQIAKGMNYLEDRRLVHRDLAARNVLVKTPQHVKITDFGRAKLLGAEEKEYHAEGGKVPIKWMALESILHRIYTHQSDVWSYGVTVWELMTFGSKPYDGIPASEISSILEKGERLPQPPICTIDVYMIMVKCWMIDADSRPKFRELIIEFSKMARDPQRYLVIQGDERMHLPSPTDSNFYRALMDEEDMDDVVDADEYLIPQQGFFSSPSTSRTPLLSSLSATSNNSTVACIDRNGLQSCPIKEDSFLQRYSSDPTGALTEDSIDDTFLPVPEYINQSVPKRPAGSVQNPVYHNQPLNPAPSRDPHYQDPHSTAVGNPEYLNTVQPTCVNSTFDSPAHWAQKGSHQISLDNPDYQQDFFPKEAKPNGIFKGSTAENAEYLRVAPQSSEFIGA
ASSAY TEXT: EGFR T790M/L858R enzyme HTRF inhibition assay
COND: 20 μM ATP, read-out: EGFR L858R/T79M IC50
METRIC NAME: pIC50
Reminder that pIC50 means the negative base-10 logarithm of the concentration expressed in mol/L.

Reference set (2 entries):
                                   compound  metric_name  result
0  C=CC(=O)Nc1cc(Nc2nccc(-c3c4n(c5ccc(F)cc35)CCOC4)n2)c(OC)cc1N(C)CCN(C)C [Embodiment 37]        pIC50   10.00
1  C=CC(=O)Nc1cc(Nc2nccc(-c3c4n(c5ccccc35)CCC4)n2)c(OC)cc1CCCN(C)C [Embodiment 10]        pIC50    8.66

Now look at this one.
Problem: Please give the measured pIC50 for this compound: C=CC(=O)Nc1cc(Nc2nccc(-c3c4n(c5ccccc35)CCC4)n2)c(OC)cc1CN1CCOCC1 [Embodiment 9]
Result: 9.12
